assay_protocol: Volume of distribution at steady state in cynomolgus monkey at 0.25 mg/kg, iv and 1 mg/kg, po
Assay type: ADME, organism-based, Macaca fascicularis
conditions: in vivo, read-out: Vdss
reported_property: Vd (L/kg)
Write the value in L/kg as a bare number.

What the record says about O=C(c1ccc(-n2nc(C(F)(F)F)c3c2CCCC3)cc1)N1CCCC1 : Vd is 1.6

###

assay_protocol: Clearance in Gottingen minipig at 0.5 mg/kg, iv and 1 mg/kg, po
Type: ADME, organism-based, Sus scrofa
conditions: pig, in vivo
reported_property: clearance (mL/min/kg)
Write the answer as a number in mL/min/kg, unit excluded.

Given item O=C(c1ccc(-n2nc(C(F)(F)F)c3c2CCCC3)cc1)N1CCCC1 , the value recorded as its clearance is 23

###

assay_protocol: Cmax in Gottingen minipig at 1 mg/kg, po
Format: ADME, organism-based, Sus scrofa
Set-up: dose 1 mg/kg, route oral
conditions: pig, in vivo
reported_property: Cmax (ng/mL)
Express your answer in ng/mL, writing the number without its unit.

Item: O=C(c1ccc(-n2nc(C(F)(F)F)c3c2CCCC3)cc1)N1CCCC1 | Cmax: 29

###

assay_protocol: Cmax in Swiss Beagle dog at 0.5 mg/kg, po
Type: ADME, organism-based, Canis lupus familiaris
Design: dose 0.5 mg/kg, route oral
conditions: in vivo
reported_property: Cmax (ng/mL)
Use ng/mL as the unit, but write only the number.

For this compound ( O=C(c1ccc(-n2nc(C(F)(F)F)c3c2CCCC3)cc1)N1CCCC1 ), measured Cmax is 14

###

assay_protocol: Cmax in cynomolgus monkey at 1 mg/kg, po
Format: ADME, organism-based, Macaca fascicularis
Parameters: dose 1 mg/kg, route oral
conditions: in vivo
reported_property: Cmax (ng/mL)
Report only the number, with the unit ng/mL understood.

According to the records, this compound O=C(c1ccc(-n2nc(C(F)(F)F)c3c2CCCC3)cc1)N1CCCC1 displays Cmax of 5

###

The following compounds are shown together with reported solubility kinetic values.
assay_protocol: Kinetic solubility of the compound in phosphate buffered saline of pH 7.4
Type: physicochemical
# unit: µg/mL | format: bare number

CC(C(=O)N1CCCC1)c1ccc(-n2nc(C(F)(F)F)c3c2CCCC3)cc1 (stereo not given) :: 59
CN1CCc2c(C(F)(F)F)nn(-c3ccc(CN4CCCC4=O)cc3)c2C1 :: 93
CC(C)S(=O)(=O)NCc1ccc(-n2nc(C(F)(F)F)c3c2CCCC3)cc1 :: 11

What the record says about O=S1(=O)CCCN1Cc1ccc(-n2nc(C(F)(F)F)c3c2CCCC3)cc1 : solubility kinetic is 12

Record O=C1CCCN1Cc1ccc(-n2nc(C(F)(F)F)c3c2CCCC3)cc1 . Reported solubility kinetic: 110

Value of solubility kinetic reported for the compound CN(C)C(=O)c1ccc(-n2nc(C(F)(F)F)c3c2CCCC3)cc1 is 138

Briefly, solubility kinetic measured for O=C(c1ccc(-n2nc(C(F)(F)F)c3c2COCC3)cc1)N1CCCC1 : 104

In plain terms, CN(CCc1ccccc1)C(=O)c1ccc(-n2nc(C(F)(F)F)c3c2CCCC3)cc1 has a documented solubility kinetic of 57

Recorded result, O=C(C(F)c1ccc(-n2nc(C(F)(F)F)c3c2CCCC3)cc1)N1CCCC1 (stereo not given) , solubility kinetic: 124

compound CC(=O)c1ccc(-n2nc(C(F)(F)F)c3c2CCCC3)cc1 , solubility kinetic observed: 13

###

assay_protocol: Cmax in rat blood at 3 mg/kg, po
Format: ADME, organism-based
Set-up: dose 3 mg/kg, route oral
conditions: whole blood
Classification field: enter criterion met for Cmax values not below 300 ng/mL, criterion not met for values below it.

Worked examples, 5 compounds total:
O=C1CCCN1Cc1ccc(-n2nc(C(F)(F)F)c3c2CCOC3)cc1 :: criterion met
O=C(c1ccc(-n2nc(C(F)(F)F)c3c2COCC3)cc1)N1CCCC1 :: criterion not met
O=C(c1ccc(-n2nc(C(F)(F)F)c3c2CCOC3)cc1)N1CCCC1 :: criterion met
CN1CCc2c(C(F)(F)F)nn(-c3ccc(CN4CCCC4=O)cc3)c2C1 :: criterion not met
O=C1CCCN1Cc1c(F)cc(-n2nc(C(F)(F)F)c3c2CCOC3)cc1F :: criterion not met

Here is another compound to look at.
## Input Hi, just wondering whether O=C1CCCN1Cc1ccc(-n2nc(C(F)(F)F)c3c2COCC3)cc1 shows Cmax of 300 ng/mL or higher.
## Output criterion met

###

Tested on: Brain
assay_protocol: Brain tissue binding in rat at 3 mg/kg, po
Format: ADME, organism-based
Set-up: dose 3 mg/kg, route oral
conditions: in vivo
Listed below: Brain tissue binding (% bound) values for each entry.
The answer is to be given in %; state only the numeric part.

Observe how each entry below is paired with its result.
O=C1CCCN1Cc1c(F)cc(-n2nc(C(F)(F)F)c3c2CCOC3)cc1F :: 96.3
O=C1CCCN1Cc1ccc(-n2nc(C(F)(F)F)c3c2CCOC3)cc1 :: 87.9
O=C1CCCN1Cc1ccc(-n2nc(C(F)(F)F)c3c2CCCC3)cc1 :: 99.4

CN(C)C(=O)c1ccc(-n2nc(C(F)(F)F)c3c2CCCC3)cc1 yielded Brain tissue binding (% bound) of 98.2

Brain tissue binding (% bound) recorded for this compound, O=C(c1ccc(-n2nc(C(F)(F)F)c3c2CCOC3)cc1)N1CCCC1 , is 88.4

###

target_or_test_system: Glutamate receptor 2 (Homo sapiens, UniProt P42262)
Sequence (P42262 whole entry, canonical isoform): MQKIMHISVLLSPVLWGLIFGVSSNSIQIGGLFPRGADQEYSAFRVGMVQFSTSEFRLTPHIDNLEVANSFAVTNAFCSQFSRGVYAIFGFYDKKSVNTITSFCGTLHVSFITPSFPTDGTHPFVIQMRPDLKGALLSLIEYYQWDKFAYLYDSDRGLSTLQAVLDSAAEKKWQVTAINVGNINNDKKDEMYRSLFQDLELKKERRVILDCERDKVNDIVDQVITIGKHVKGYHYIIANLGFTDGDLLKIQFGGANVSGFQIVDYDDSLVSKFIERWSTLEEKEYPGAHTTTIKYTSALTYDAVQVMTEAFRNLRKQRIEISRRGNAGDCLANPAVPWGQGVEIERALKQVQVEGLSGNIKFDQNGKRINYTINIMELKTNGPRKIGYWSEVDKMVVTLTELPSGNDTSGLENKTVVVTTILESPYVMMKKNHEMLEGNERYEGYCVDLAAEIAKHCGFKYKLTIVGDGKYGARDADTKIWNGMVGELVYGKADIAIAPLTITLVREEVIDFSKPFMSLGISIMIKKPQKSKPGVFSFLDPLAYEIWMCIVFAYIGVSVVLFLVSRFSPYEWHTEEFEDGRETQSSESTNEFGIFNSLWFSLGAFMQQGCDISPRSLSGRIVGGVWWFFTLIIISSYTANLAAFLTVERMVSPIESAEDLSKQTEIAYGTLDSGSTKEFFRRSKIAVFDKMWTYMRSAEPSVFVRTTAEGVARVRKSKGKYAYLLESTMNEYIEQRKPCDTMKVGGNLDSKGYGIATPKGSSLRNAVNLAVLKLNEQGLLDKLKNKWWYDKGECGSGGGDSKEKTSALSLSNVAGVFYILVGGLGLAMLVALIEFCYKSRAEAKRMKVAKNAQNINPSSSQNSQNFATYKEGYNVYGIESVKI
assay_protocol: Allosteric modulation of human recombinant GluA2 receptor flip isoform expressed in HEK293 cells assessed as potentiation of glutamate-induced calcium influx by Fluo-4/FLIPR method
Type: cell-based
Items are presented alongside their recorded EC50.
The answer is to be given in µM; state only the numeric part.

O=C(c1ccc(-n2nc(C(F)(F)F)c3c2CCCC3)cc1)N1CCCC1 :: 10
CC(C(=O)N1CCCC1)c1ccc(-n2nc(C(F)(F)F)c3c2CCCC3)cc1 (stereo unspecified) :: 25.1

// recorded EC50 for CN(Cc1ccc(-n2nc(C(F)(F)F)c3c2CCCC3)cc1)S(C)(=O)=O : 20

Measured EC50, O=C(Cc1ccc(-n2nc(C(F)(F)F)c3c2CCCC3)cc1F)N1CCCC1 : 1.26

Documented EC50 of CN(C)C(=O)Cc1ccc(-n2nc(C(F)(F)F)c3c2CCCC3)cc1 : 2

The compound identified as CN1CCc2c(C(F)(F)F)nn(-c3ccc(CN4CCCC4=O)cc3)c2C1 registered its EC50 at 39.8

Entry CC(C)S(=O)(=O)NCc1ccc(-n2nc(C(F)(F)F)c3c2CCCC3)cc1 , EC50 reported as 10

What the record says about O=S1(=O)CCCN1Cc1ccc(-n2nc(C(F)(F)F)c3c2CCCC3)cc1 : EC50 is 10

The recorded EC50 for entry CS(=O)(=O)NCc1ccc(-n2nc(C(F)(F)F)c3c2CCCC3)cc1 equals 7.94

###

assay_protocol: Half life in cynomolgus monkey at 1 mg/kg, po
Assay type: ADME, organism-based, Macaca fascicularis
Design: dose 1 mg/kg, route oral
conditions: in vivo
reported_property: half-life (h)
// units = h; emit number, no label

For this molecule ( O=C(c1ccc(-n2nc(C(F)(F)F)c3c2CCCC3)cc1)N1CCCC1 ), measured half-life is 1.4

###

assay_protocol: Half life in Sprague-Dawley rat at 2.5 mg/kg, iv
Format: ADME, organism-based
Set-up: dose 2.5 mg/kg, route intravenous
conditions: in vivo
reported_property: half-life (h)
Report only the number, with the unit h understood.

Value of measured half-life for the entry O=C(c1ccc(-n2nc(C(F)(F)F)c3c2CCCC3)cc1)N1CCCC1 : 1.4

###

assay_protocol: Distribution coefficient, log D of the compound at pH 7.4
Type: physicochemical
conditions: octanol/water
reported_property: logD

Past entries and their recorded results:
O=C1CCCN1Cc1ccc(-n2nc(C(F)(F)F)c3c2CCOC3)cc1 :: 2.4
O=C1CCCN1Cc1c(F)cc(-n2nc(C(F)(F)F)c3c2CCOC3)cc1F :: 2.5
O=C(c1ccc(-n2nc(C(F)(F)F)c3c2CCOC3)cc1)N1CCCC1 :: 2.4
O=C1CCCN1Cc1ccc(-n2nc(C(F)(F)F)c3c2COCC3)cc1 :: 2.6
O=C(c1ccc(-n2nc(C(F)(F)F)c3c2COCC3)cc1)N1CCCC1 :: 2.6

The record that follows has no logD shown yet.
Entry CN1CCc2c(C(F)(F)F)nn(-c3ccc(CN4CCCC4=O)cc3)c2C1 — recorded logD = 2

###

target_or_test_system: Glutamate receptor 2 (Homo sapiens, UniProt P42262)
assay_protocol: Allosteric modulation of human recombinant GluA2 receptor flip isoform expressed in HEK293 cells assessed as potentiation of glutamate-induced calcium influx by Fluo-4/FLIPR method relative to cyclothiazide
Assay type: cell-based
reported_property: Activity (%)
API: value field is a number in %; no unit string.

CN(CCc1ccccc1)C(=O)c1ccc(-n2nc(C(F)(F)F)c3c2CCCC3)cc1 :: 84

The measured Activity associated with O=S(=O)(NCc1ccc(-n2nc(C(F)(F)F)c3c2CCCC3)cc1)C1CC1 reads 112

Lab note: CN(C)C(=O)c1ccc(-n2nc(C(F)(F)F)c3c2CCCC3)cc1 gave Activity of 94

// Activity value for O=C(Cc1ccc(-n2nc(C(F)(F)F)c3c2CCCC3)cc1)N1CCCC1 : 82

The value of Activity measured for the compound O=C(N1CCCC1)C1(c2ccc(-n3nc(C(F)(F)F)c4c3CCCC4)cc2)CC1 turned out to be 37

For this compound ( CC(=O)NCc1ccc(-n2nc(C(F)(F)F)c3c2CCCC3)cc1 ), measured Activity is 79

CC(C)S(=O)(=O)NCc1ccc(-n2nc(C(F)(F)F)c3c2CCCC3)cc1 yielded Activity of 79

Looking up CN(C)C(=O)Cc1ccc(-n2nc(C(F)(F)F)c3c2CCCC3)cc1 , I found its Activity recorded as 107

CCCCN(C)C(=O)c1ccc(-n2nc(C(F)(F)F)c3c2CCCC3)cc1 yielded Activity of 86

# Activity (compound: O=C(c1ccc(-n2nc(C(F)(F)F)c3c2COCC3)cc1)N1CCCC1 ) is 75

Record CS(=O)(=O)NCc1ccc(-n2nc(C(F)(F)F)c3c2CCCC3)cc1 . Reported Activity: 112

// sample O=C1CCCN1Cc1ccc(-n2nc(C(F)(F)F)c3c2CCCC3)cc1 , its Activity was 132

Summary for this compound, CC(=O)N(C)Cc1ccc(-n2nc(C(F)(F)F)c3c2CCCC3)cc1 : Activity is 94
